targetOfAssay: rat EP1 receptor (Rattus norvegicus)
Sequence (P70597 1-405): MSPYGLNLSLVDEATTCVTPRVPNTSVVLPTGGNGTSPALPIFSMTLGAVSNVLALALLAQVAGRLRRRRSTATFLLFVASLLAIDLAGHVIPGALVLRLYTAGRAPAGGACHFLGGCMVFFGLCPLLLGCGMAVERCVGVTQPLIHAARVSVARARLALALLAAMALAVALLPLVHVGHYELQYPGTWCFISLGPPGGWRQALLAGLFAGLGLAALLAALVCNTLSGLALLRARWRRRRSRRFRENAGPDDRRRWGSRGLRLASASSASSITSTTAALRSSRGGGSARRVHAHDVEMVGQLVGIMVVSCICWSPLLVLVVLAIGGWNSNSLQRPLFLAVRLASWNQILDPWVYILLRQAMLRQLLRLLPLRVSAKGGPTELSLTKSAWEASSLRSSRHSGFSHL
experimentNotes: Test for confirmation of EP1 receptor antagonism (inhibition of PGE2-induced increase in intracellular calcium concentration)
protocolConditions: rat EP1 receptor-expressing COS-1 cells; prostaglandin E2 10 nM; fluorescent calcium indicator, FDSS 7000
Would you kindly list pIC50 for each of these molecules?
Scale for pIC50: -log10 of concentration given in mol/L; no unit attached.

Entry under test: CCS(=O)(=O)NC(=O)c1cccc(Cc2c(-c3ccsc3)[nH]c3cc(C)ccc23)n1 [Example 18-9] . Its pIC50 was 7.64

Entry under test: COc1cc2[nH]c(-c3ccccc3)c(Cc3cccc(C(=O)NS(C)(=O)=O)n3)c2cc1F [Example 3-9] . Its pIC50 was 7.60

Entry under test: COc1cc2[nH]c(C3(C)CC3)c(Cc3cccc(-c4nnn[nH]4)n3)c2cc1Cl [Example 20-3] . Its pIC50 was 7.57

Entry under test: Cc1ccc2c(Cc3cccc(-c4noc(=O)[nH]4)n3)c(-c3ccsc3)[nH]c2c1 [Example 12-9] . Its pIC50 was 7.47

Entry under test: CCS(=O)(=O)NC(=O)c1cccc(Cc2c(-c3ccccc3)[nH]c3cc(C)ccc23)n1 [Example 3-34] . Its pIC50 was 7.40

Entry under test: Cc1ccc2c(Cc3cccc(-c4nnn[nH]4)n3)c(C3(C)CC3)[nH]c2c1 [Example 17-12] . Its pIC50 was 7.85

Entry under test: CCCS(=O)(=O)NC(=O)c1cccc(Cc2c(-c3ccccc3)[nH]c3cc(OC)c(F)cc23)n1 [Example 18-5] . Its pIC50 was 7.49

Entry under test: Cc1ccc2c(Cc3cccc(-c4nnn[nH]4)n3)c(-c3ccsc3)[nH]c2c1 [Example 5-13] . Its pIC50 was 7.52

Entry under test: O=c1[nH]c(-c2cccc(Cc3c(-c4ccoc4)[nH]c4cc(C5CC5)ccc34)n2)no1 [Example 12-13] . Its pIC50 was 7.59

Entry under test: Cc1ccc2c(Cc3cccc(-c4nnn[nH]4)n3)c(-c3ccoc3)[nH]c2c1 [Example 17-8] . Its pIC50 was 8.14

Entry under test: CC1(c2[nH]c3cc(Cl)ccc3c2Cc2cccc(-c3nnn[nH]3)n2)CC1 [Example 17-14] . Its pIC50 was 7.62

Entry under test: COc1cc2[nH]c(-c3ccccc3)c(Cc3cccc(-c4noc(=O)[nH]4)n3)c2cc1F [Example 12-5] . Its pIC50 was 7.34

Entry under test: c1cc(Cc2c(-c3ccoc3)[nH]c3cc(C4CC4)ccc23)nc(-c2nnn[nH]2)c1 [Example 17-9] . Its pIC50 was 8.00

Entry under test: COc1ccc2c(Cc3cccc(C(=O)NS(C)(=O)=O)n3)c(-c3ccsc3)[nH]c2c1 [Example 1] . Its pIC50 was 7.00

Entry under test: Cc1ccc2c(Cc3cccc(C(=O)NC#N)n3)c(-c3ccsc3)[nH]c2c1 [Example 16-6] . Its pIC50 was 7.44

Entry under test: COc1cc2[nH]c(C(C)(C)C)c(Cc3cccc(C(=O)NC#N)n3)c2cc1Cl [Example 16-5] . Its pIC50 was 7.34
